Measurement notes: endothelial E-selectin expression blockers – imaging, HUVEC, immunofluorescence, MLSMR starter and 10KST1 sets, primary screen (AID 487);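 also: signal is fraction of cell area covered by stained E-selectin grains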
Measurement setup: HUVEC TNFalpha-induced E-selectin immunofluorescence imaging, at 2 µM; active compounds read high
Quantity: inhibition (%)

Compound: COc1cc2c(C)nc(C)c(C#N)c2cc1OC
Quantity: inhibition
Display unit: %
Numeric result: -12.4

Compound: COc1cccc(C2CC(c3c(Cl)cccc3Cl)n3nc(N)nc3N2)c1 (configuration not stated)
Quantity: inhibition
Display unit: %
Numeric result: 25.6

Compound: Cc1ccc(Nc2nc(CSc3nnc(-c4cccs4)o3)cs2)cc1
Quantity: inhibition
Display unit: %
Numeric result: 16.3

Compound: COc1ccc(CNC(=O)c2nnn(Cc3ccc(OC)cc3)c2N)cc1
Quantity: inhibition
Display unit: %
Numeric result: -6.7

Compound: O=S(=O)(NCc1ccc(Cl)cc1)c1cnc[nH]1
Quantity: inhibition
Display unit: %
Numeric result: -182

Compound: COc1ccc(NC(=O)Nc2ccc(C)cc2OC(F)F)cc1OC
Quantity: inhibition
Display unit: %
Numeric result: -38.2

Compound: CCOC(=O)N1CCC(NC(=O)c2cnn3ccccc23)CC1
Quantity: inhibition
Display unit: %
Numeric result: -67

Compound: O=C(CSCc1ccccn1)Nc1ccccc1
Quantity: inhibition
Display unit: %
Numeric result: 4.8

Compound: COc1ccc(C(=O)Nc2nncs2)c(OC)c1
Quantity: inhibition
Display unit: %
Numeric result: -98.6

Compound: C[C@@H]1C[C@H](O)c2cc(Cl)ccc2N1
Quantity: inhibition
Display unit: %
Numeric result: -39.2

Compound: COC(=O)c1ccccc1NC(=O)N1CCCC1
Quantity: inhibition
Display unit: %
Numeric result: -45.5

Compound: CCc1nc2scc(-c3ccccc3)c2c(=O)n1N
Quantity: inhibition
Display unit: %
Numeric result: -361

###

Experimental target: Voltage-gated potassium channel subunit beta-2 (Rattus norvegicus) (UniProt P62483)
Sequence (P62483 whole entry, looked up): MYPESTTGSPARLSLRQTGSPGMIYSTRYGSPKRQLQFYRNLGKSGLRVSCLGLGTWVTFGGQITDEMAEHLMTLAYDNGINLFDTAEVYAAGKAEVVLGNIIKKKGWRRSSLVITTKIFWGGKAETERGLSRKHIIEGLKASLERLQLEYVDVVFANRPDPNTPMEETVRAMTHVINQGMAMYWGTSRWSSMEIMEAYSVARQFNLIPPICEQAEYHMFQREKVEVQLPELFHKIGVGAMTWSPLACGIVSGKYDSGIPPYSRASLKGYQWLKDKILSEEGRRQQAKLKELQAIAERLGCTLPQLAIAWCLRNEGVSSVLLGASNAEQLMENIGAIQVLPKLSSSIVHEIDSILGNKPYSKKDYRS
Measurement notes: inhibitors of rat Kvbeta2 reductase activity – biochemical, NADPH fluorescence, primary screen (AID 622);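 also: slope of raw intensity against log time taken from 70 to 1610 s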
Measurement setup: recombinant KvBeta, 4-cyanobenzaldehyde reduction, at 10 µM, active compounds read high
Quantity: fluorescence slope

Compound: Cc1ccc(C2Nc3ccccc3-c3nc4ccccc4n32)o1 (configuration not stated)
Numeric result: -0.475

Compound: CC(C)(C)n1nnnc1CN1CCN(C2CCCC2)CC1
Numeric result: -0.472

Compound: CN(C(=O)c1ccccn1)c1nnc(-c2cccnc2)s1
Numeric result: -0.489

Compound: C=CCNC(=O)c1cc(-c2ccccc2O)on1
Numeric result: -0.588

Compound: Cc1ccc(C)c(N(CC(=O)NCc2ccco2)C(=O)CCC(=O)Nc2ccccn2)c1
Numeric result: -0.608

Compound: COc1ccc(CN(Cc2cc3cc4c(cc3[nH]c2=O)OCO4)C(=O)NC2CCCCC2)cc1
Numeric result: -0.368

Compound: O=C(Cn1ncc2c1-c1ccccc1OC2)N1CCN(c2ccccn2)CC1
Numeric result: -0.587

Compound: CCOc1ccc2ccccc2c1C(=O)N1CCN(c2ccccc2)CC1
Numeric result: -0.423

Compound: CCn1c(SCC(=O)Nc2cccc(C)c2)nc2c(c1=O)SC(C)C2 (configuration not stated)
Numeric result: -0.537

Compound: O=c1cnnc(NCc2ccccc2)[nH]1
Numeric result: -0.418

Compound: COc1cccc(NC(=O)c2nc3nc(C)cc(C(F)F)n3n2)c1
Numeric result: -0.567

Compound: O=C(Cc1ccccc1)N1CCCC(c2nc(-c3cccs3)no2)C1 (configuration not stated)
Numeric result: -0.475

Compound: CCC(=O)N(CCCN(C)C)c1nc(-c2cc(OC)ccc2OC)cs1
Numeric result: -0.623

Compound: CCCCn1c(NCCC)nc2c1c(=O)[nH]c(=O)n2C
Numeric result: -0.402

Compound: Cc1ccc(S(=O)(=O)NCC(=O)N(CC(=O)NCc2ccccc2)CC2CCCO2)cc1 (configuration not stated)
Numeric result: -0.599

Compound: Nn1c(SCC(=O)Nc2ccc3c(c2)OCO3)nnc1C1CC1
Numeric result: -0.574

Compound: Cc1cc2cc(CCNC(=O)CC(C)C)c(=O)[nH]c2cc1C
Numeric result: -0.595

Compound: N#Cc1ccc(COC(=O)Cn2nnc(-c3ccccc3)n2)cc1
Numeric result: -0.614

Compound: CCOc1cc(-c2nc(-c3ccccc3OC)no2)cc(OCC)c1OCC
Numeric result: -0.605

Compound: CCn1nnc(NC(=O)c2ccc(-c3ccc(Cl)cc3)o2)n1
Numeric result: -0.488

Compound: Cn1c(C(=O)NCCCN2CCCCCC2)cc2c(=O)n(C)c3ccccc3c21
Numeric result: -0.639

Compound: O=S(=O)(Cc1ccccc1)N1CCCCCC1
Numeric result: -0.497

Compound: CCCCN(C)C(=O)c1ccc(CS(=O)(=O)c2ccccc2C)o1
Numeric result: -0.569

Compound: CSc1nc2ccc(Nc3nc(N4CCOCC4)nc(N4CCOCC4)n3)cc2s1
Numeric result: -0.354

Compound: COc1cc(C(=O)NCCc2ccc3c(c2)OCCO3)ccc1OCC(=O)N1CCOCC1
Numeric result: -0.298

Compound: Cc1nc2ncnn2c(Nc2ccc3c(c2)OCCO3)c1C
Numeric result: -0.614

Compound: CCOC(=O)CNC(=O)CSc1nnnn1-c1cc(C)ccc1C
Numeric result: -0.533

Compound: COCCNC(=O)C(c1cccc(OC)c1)N(Cc1cccs1)C(=O)Cn1nnc2ccccc21 (configuration not stated)
Numeric result: -0.622

Compound: Nc1ncnc2nc(Sc3ccc(Cl)cc3)[nH]c12
Numeric result: -0.555

Compound: Cc1[nH]nc(N=CC2=C(O)CC(C)(C)CC2=O)c1-c1ccccc1
Numeric result: -0.344

Compound: COc1ccc(Cc2nc(-c3ccc(NC(=O)c4cccnc4)cc3)no2)cc1
Numeric result: -0.6

Compound: Cc1cc(C(=O)CSc2nc3ccccc3[nH]2)c(C)n1C
Numeric result: -0.59

Compound: Cc1[nH]nc2c1C(=O)CCC2
Numeric result: -0.366

Compound: Nc1nc(N2CCCCC2)nc(N(c2ccccc2)c2ccccc2)n1
Numeric result: -0.544

Compound: CC(=O)c1ccc(OCC(O)CN2CCN(CCO)CC2)cc1 (configuration not stated)
Numeric result: -0.549

Compound: CCCCC(CC)CNC(=O)C1CCCN(S(=O)(=O)c2cnc[nH]2)C1 (configuration not stated)
Numeric result: -0.491

Compound: COc1ccc(CN(CC(=O)NCc2ccco2)C(=O)CCC(=O)Nc2nccs2)cc1
Numeric result: -0.403

Compound: O=C1CCCCCN1CSc1nc2ccccc2s1
Numeric result: -0.433

Compound: CC1(C)CC(=O)C=C(Nc2ccc(OCC(F)(F)C(F)F)cc2)C1
Numeric result: -0.324

Compound: C=CCn1c(SCC(=O)Nc2cccc(OC)c2)nnc1-c1cccnc1
Numeric result: -0.527

Compound: Cc1ccc(CSc2nc3c(c(=O)[nH]2)CCC3)cc1
Numeric result: -0.363

Compound: CC12CCC(C(=O)N3CCCCC3)(CC1=O)C2(C)C (configuration not stated)
Numeric result: -0.299

Compound: CCOC(=O)c1cc(C(C)(C)C)oc1CN
Numeric result: -0.495

Compound: CCOC(=O)CSc1nnc(-c2ccc(Cl)cc2Cl)o1
Numeric result: -0.405

Compound: CN(CCCNC(=O)c1cn(C)c2ccc(S(=O)(=O)N(C)C)cc2c1=O)c1ccccc1
Numeric result: -0.582

Compound: COC(=O)c1ccc2c(c1)C(=O)N(C1CCCCC1)C2=O
Numeric result: -0.443

Compound: CCOC(=O)Nc1c(O)ccc2oc(C)c(-c3ccccc3)c12
Numeric result: -0.5

###

Experimental target: Alpha-2C adrenergic receptor (Homo sapiens)
Measurement notes: compounds altering alpha2C-coupled GIRK flux – cell-based, HEK293 alpha2C/GIRK1/2, thallium flux, primary screen (AID 624);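 also: slope of fluorescence ratio to pre-addition baseline per second over 15 to 24 s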
Measurement setup: thallium flux BTC fluorescence, at 10 µM, actives lie on both sides
Property: slope; scope: individual compounds

Compound: COCCN(CCOC)S(=O)(=O)c1ccc(C(=O)Nc2nnc(C3CC3)o2)cc1
Experimental target: Alpha-2C adrenergic receptor (Homo sapiens)
slope: 0.00677
--
Compound: COc1ccc(NC(=O)CSc2nc3c(c(=O)n2-c2ccccc2OC)SCC3)cc1
Experimental target: Alpha-2C adrenergic receptor (Homo sapiens)
slope: 0.00646
--
Compound: CCOC(=O)c1cc2sc(C)cc2n1C(C)C(=O)OCC (stereo unspecified)
Experimental target: Alpha-2C adrenergic receptor (Homo sapiens)
slope: 0.00348
--
Compound: COc1ccccc1CC(=O)NCc1ccc2c(c1)OCO2
Experimental target: Alpha-2C adrenergic receptor (Homo sapiens)
slope: 0.00532
--
Compound: CCOC(=O)CN1CC23C=CC(O2)C(C(=O)NC2CCCC2)C3C1=O (stereo unspecified)
Experimental target: Alpha-2C adrenergic receptor (Homo sapiens)
slope: 0.00621
--
Compound: O=C1C(Cl)=C(N2CCCCC2)C(=O)N1c1ccccc1Cl
Experimental target: Alpha-2C adrenergic receptor (Homo sapiens)
slope: 0.00518
--
Compound: COc1cc(-c2nnc(SCc3c(F)cccc3Cl)o2)cc(OC)c1OC
Experimental target: Alpha-2C adrenergic receptor (Homo sapiens)
slope: 0.00634
--
Compound: CC(=O)NC(CCS(C)(=O)=O)C(=O)Nc1cccc(C)c1C (stereo unspecified)
Experimental target: Alpha-2C adrenergic receptor (Homo sapiens)
slope: 0.00627
--
Compound: Cc1onc(-c2ccccc2Cl)c1C(=O)NCc1cccnc1
Experimental target: Alpha-2C adrenergic receptor (Homo sapiens)
slope: 0.00593
--
Compound: CCOC(=O)c1c(NC(=O)c2ccn(CC)n2)sc2c1CCCC2
Experimental target: Alpha-2C adrenergic receptor (Homo sapiens)
slope: 0.00291
--
Compound: CCn1cc(C(=O)O)c(=O)c2cc(F)c(N3CCN(C(=O)Nc4ccccc4)CC3)cc21
Experimental target: Alpha-2C adrenergic receptor (Homo sapiens)
slope: 0.00493
